The values you see were collected from patent US20090252716A1.

System: T98G human glioma cells
testDetails: WST-1 proliferation assay, T98G glioma cells
Format: cell-based
recordedConditions: anti-tumor activity, 48 hours, read-out: EC50, T98-glioma
readoutName: pEC50
Interpret pEC50 as the negative base-10 log of the concentration measured in mol/L.

The examples below pair each entry with its known result.
[
  {
    "givenSmiles": "COc1ccc2[nH]cc(CCNC(C)=O)c2c1",
    "readoutName": "pEC50",
    "reportedResult": 4.51
  },
  {
    "givenSmiles": "CCCC(=O)SCCNC(=O)CCNC(=O)[C@H](O)C(C)(C)COP(=O)(O)OP(=O)(O)OC[C@H]1O[C@@H](n2cnc3c(N)ncnc32)[C@H](O)[C@@H]1OP(=O)(O)O",
    "readoutName": "pEC50",
    "reportedResult": 4.07
  },
  {
    "givenSmiles": "CO[C@H]1/C=C/O[C@@]2(C)Oc3c(C)c(O)c4c(O)c(c(/C=N/N5CCN(C)CC5)c(O)c4c3C2=O)NC(=O)/C(C)=C\\C=C\\[C@H](C)[C@H](O)[C@@H](C)[C@@H](O)[C@@H](C)[C@H](OC(C)=O)[C@@H]1C",
    "readoutName": "pEC50",
    "reportedResult": 4.89
  }
]

Next item in the queue.
Task: Give me measured pEC50, please, for this compound: `O=C(O)Cc1cccc(OCCCN(Cc2cccc(C(F)(F)F)c2Cl)CC(c2ccccc2)c2ccccc2)c1`
Output: 5.31
